experiment-notes: Experiment on the liver-to-blood ratio in Balb/c mice, oral administration
Assay type: in vivo
conditions-used: mouse; Plasma, oral 3 mg/kg, Balb/c female mice
readout: AUC(0-t) (µM·h)
API: value field is a number in µM·h; no unit string.

Q: Entry under review: C[C@]1(NC(=O)C(=O)c2c(Cl)c(C(=O)Nc3cc(F)c(F)c(F)c3)c3n2CCC3)CC[C@H](CC(=O)O)CC1 . Reported AUC(0-t)?
Ans: 3.48

Q: Continue with C[C@]1(NC(=O)C(=O)c2c(Cl)c(C(=O)Nc3ccc(F)c(F)c3)c3n2CCC3)CC[C@H](CC(=O)O)CC1
Ans: 3.69
